measurement protocol: Pharmacokinetic evaluation following a single oral and intravenous administration
Type: in vivo, CD1 mouse
experimental setup: CD1, mouse, plasma, iv, 1 mg/kg, Table 10, IV Dose: 1 mg/kg, Mouse 2; read-out: T1/2 (converted)
recorded metric: half-life (h)
Return type: number; implicit unit h.

Ask: Which half-life is listed for CC(=O)N[C@@H](Cc1ccc(CN(C)C)cc1)c1nnc(-c2cccc(OC(F)(F)F)c2)s1 ?
Result: 2.29

* * *

measurement protocol: Pharmacokinetic evaluation following a single oral and intravenous administration
Assay type: in vivo, CD1 mouse
experimental setup: CD1, mouse, plasma, iv, 1 mg/kg, Table 3, IV Dose: 1 mg/kg, 0.25 h, Mouse 3; read-out: Concentration
recorded metric: concentration at 0.25 h (ng/mL)
Return type: number; implicit unit ng/mL.

Ask: Which concentration at 0.25 h is listed for CNCc1ccc(C[C@H](NC(C)=O)c2nnc(-c3cccc(OC(F)(F)F)c3)s2)cc1 [Compound 42140] ?
Result: 74.2

* * *

measurement protocol: Pharmacokinetic evaluation following a single oral and intravenous administration
Type: in vivo, CD1 mouse
experimental setup: CD1, mouse, plasma, iv, 1 mg/kg, Table 9, IV Dose: 1 mg/kg, 8 h, mean; read-out: Concentration, Mean
recorded metric: concentration at 8 h (ng/mL)
Return type: number; implicit unit ng/mL.

Ask: Which concentration at 8 h is listed for CC(=O)N[C@@H](Cc1ccc(CN(C)C)cc1)c1nnc(-c2cccc(OC(F)(F)F)c2)s1 ?
Result: 4.35

* * *

measurement protocol: Pharmacokinetic evaluation following a single oral and intravenous administration
Type: in vivo, CD1 mouse
experimental setup: CD1, mouse, plasma, iv, 1 mg/kg, Table 3, IV Dose: 1 mg/kg, 0.5 h, mean; read-out: Concentration, Mean
recorded metric: concentration at 0.5 h (ng/mL)
Return type: number; implicit unit ng/mL.

Ask: Which concentration at 0.5 h is listed for CNCc1ccc(C[C@H](NC(C)=O)c2nnc(-c3cccc(OC(F)(F)F)c3)s2)cc1 ?
Result: 53

* * *

measurement protocol: Pharmacokinetic evaluation following a single oral and intravenous administration
Format: in vivo, CD1 mouse
experimental setup: CD1, mouse, plasma, po, 5 mg/kg, Table 12, PO Dose: 5 mg/kg, Mouse 5; read-out: MRTInf—obs
recorded metric: MRT inf (h)
Return type: number; implicit unit h.

Ask: Which MRT inf is listed for CC(=O)N[C@@H](Cc1ccc(CN(C)C)cc1)c1nnc(-c2cccc(OC(F)(F)F)c2)s1 ?
Result: 6.33

* * *

measurement protocol: Pharmacokinetic evaluation following a single oral and intravenous administration
Format: in vivo, CD1 mouse
experimental setup: CD1, mouse, plasma, iv, 1 mg/kg, Table 9, IV Dose: 1 mg/kg, 0.5 h, Mouse 2; read-out: Concentration
recorded metric: concentration at 0.5 h (ng/mL)
Return type: number; implicit unit ng/mL.

Ask: Which concentration at 0.5 h is listed for CC(=O)N[C@@H](Cc1ccc(CN(C)C)cc1)c1nnc(-c2cccc(OC(F)(F)F)c2)s1 [Compound 42320] ?
Result: 59.2

* * *

measurement protocol: Pharmacokinetic evaluation following a single oral and intravenous administration
Type: in vivo, CD1 mouse
experimental setup: CD1, mouse, plasma, iv, 1 mg/kg, Table 10, IV Dose: 1 mg/kg, Mouse 1; read-out: T1/2 (converted)
recorded metric: half-life (h)
Return type: number; implicit unit h.

Ask: Which half-life is listed for CC(=O)N[C@@H](Cc1ccc(CN(C)C)cc1)c1nnc(-c2cccc(OC(F)(F)F)c2)s1 ?
Result: 2.27

* * *

measurement protocol: Pharmacokinetic evaluation following a single oral and intravenous administration
Type: in vivo, CD1 mouse
experimental setup: CD1, mouse, plasma, po, 5 mg/kg, Table 11, PO Dose: 5 mg/kg, 1 h, mean; read-out: Concentration, Mean
recorded metric: concentration at 1 h (ng/mL)
Return type: number; implicit unit ng/mL.

Ask: Which concentration at 1 h is listed for CC(=O)N[C@@H](Cc1ccc(CN(C)C)cc1)c1nnc(-c2cccc(OC(F)(F)F)c2)s1 [Compound 42320] ?
Result: 141

* * *

measurement protocol: Pharmacokinetic evaluation following a single oral and intravenous administration
Format: in vivo, CD1 mouse
experimental setup: CD1, mouse, plasma, iv, 1 mg/kg, Table 10, IV Dose: 1 mg/kg, Mouse 2; read-out: AUCInf
recorded metric: AUC(0-inf) (ng·h/mL)
Return type: number; implicit unit ng·h/mL.

Ask: Which AUC(0-inf) is listed for CC(=O)N[C@@H](Cc1ccc(CN(C)C)cc1)c1nnc(-c2cccc(OC(F)(F)F)c2)s1 ?
Result: 165

* * *

measurement protocol: Pharmacokinetic evaluation following a single oral and intravenous administration
Format: in vivo, CD1 mouse
experimental setup: CD1, mouse, plasma, iv, 1 mg/kg, Table 4, IV Dose: 1 mg/kg, mean; read-out: T1/2, Mean (converted)
recorded metric: half-life

Ask: Which half-life is listed for CNCc1ccc(C[C@H](NC(C)=O)c2nnc(-c3cccc(OC(F)(F)F)c3)s2)cc1 [Compound 42140] ?
Result: 10.1 h

* * *

measurement protocol: Pharmacokinetic evaluation following a single oral and intravenous administration
Type: in vivo, CD1 mouse
experimental setup: CD1, mouse, plasma, iv, 1 mg/kg, Table 3, IV Dose: 1 mg/kg, 0.5 h, Mouse 2; read-out: Concentration
Protocol: A NMP stock solution was prepared by adding 1.136 mL of NMP to 5.68 mg of compound no. 42140 with vortexing and sonification, to obtain a solution with a concentration at 5 mg/mL of 42140:01. Next, to prepare an intravenous formulation, 0.100 mL of the 5 mg/mL stock solution was placed in a new vial. 0.100 mL of NMP and 0.400 mL of PEG400 were added with vortexing and sonification, followed by addition of 0.400 mL of saline with vortexing and sonification. […] 42140:01. […]
recorded metric: concentration at 0.5 h (ng/mL)
Return type: number; implicit unit ng/mL.

Ask: Which concentration at 0.5 h is listed for CNCc1ccc(C[C@H](NC(C)=O)c2nnc(-c3cccc(OC(F)(F)F)c3)s2)cc1 ?
Result: 53.8

* * *

measurement protocol: Pharmacokinetic evaluation following a single oral and intravenous administration
Assay type: in vivo, CD1 mouse
experimental setup: CD1, mouse, plasma, iv, 1 mg/kg, Table 9, IV Dose: 1 mg/kg, 0.25 h, mean; read-out: Concentration, Mean
recorded metric: concentration at 0.25 h (ng/mL)
Return type: number; implicit unit ng/mL.

Ask: Which concentration at 0.25 h is listed for CC(=O)N[C@@H](Cc1ccc(CN(C)C)cc1)c1nnc(-c2cccc(OC(F)(F)F)c2)s1 ?
Result: 67.2

* * *

measurement protocol: Pharmacokinetic evaluation following a single oral and intravenous administration
Type: in vivo, CD1 mouse
experimental setup: CD1, mouse, plasma, iv, 1 mg/kg, Table 9, IV Dose: 1 mg/kg, 0.5 h, Mouse 3; read-out: Concentration
Experimental: A NMP stock solution was prepared by adding 1.136 mL of NMP to 5.68 mg of compound no. 42140 with vortexing and sonification, to obtain a solution with a concentration at 5 mg/mL of 42140:01. Next, to prepare an intravenous formulation, 0.100 mL of the 5 mg/mL stock solution was placed in a new vial. 0.100 mL of NMP and 0.400 mL of PEG400 were added with vortexing and sonification, followed by addition of 0.400 mL of saline with vortexing and sonification. […] 42140:01. […]
recorded metric: concentration at 0.5 h (ng/mL)
Return type: number; implicit unit ng/mL.

Ask: Which concentration at 0.5 h is listed for CC(=O)N[C@@H](Cc1ccc(CN(C)C)cc1)c1nnc(-c2cccc(OC(F)(F)F)c2)s1 ?
Result: 52.7

* * *

measurement protocol: Pharmacokinetic evaluation following a single oral and intravenous administration
Type: in vivo, CD1 mouse
experimental setup: CD1, mouse, plasma, iv, 1 mg/kg, Table 10, IV Dose: 1 mg/kg, mean; read-out: AUCInf, Mean
recorded metric: AUC(0-inf) (ng·h/mL)
Return type: number; implicit unit ng·h/mL.

Ask: Which AUC(0-inf) is listed for CC(=O)N[C@@H](Cc1ccc(CN(C)C)cc1)c1nnc(-c2cccc(OC(F)(F)F)c2)s1 ?
Result: 180

* * *

measurement protocol: Pharmacokinetic evaluation following a single oral and intravenous administration
Assay type: in vivo, CD1 mouse
experimental setup: CD1, mouse, plasma, iv, 1 mg/kg, Table 10, IV Dose: 1 mg/kg, Mouse 2; read-out: MRTInf—obs
recorded metric: MRT inf (h)
Return type: number; implicit unit h.

Ask: Which MRT inf is listed for CC(=O)N[C@@H](Cc1ccc(CN(C)C)cc1)c1nnc(-c2cccc(OC(F)(F)F)c2)s1 ?
Result: 2.59

* * *

measurement protocol: Pharmacokinetic evaluation following a single oral and intravenous administration
Assay type: in vivo, CD1 mouse
experimental setup: CD1, mouse, plasma, iv, 1 mg/kg, Table 3, IV Dose: 1 mg/kg, 24 h, Mouse 2; read-out: Concentration
recorded metric: concentration at 24 h
A bare number is not enough; add the unit after it.

Ask: Which concentration at 24 h is listed for CNCc1ccc(C[C@H](NC(C)=O)c2nnc(-c3cccc(OC(F)(F)F)c3)s2)cc1 [Compound 42140] ?
Result: 5.76 ng/mL
